Target: rat A2A AR (Rattus norvegicus, UniProt P30543)
Construct: A2A ARs of rat brain striatal membrane preparations; from tissue; host or cells: rat brain striatum membranes
Sequence (P30543 whole entry): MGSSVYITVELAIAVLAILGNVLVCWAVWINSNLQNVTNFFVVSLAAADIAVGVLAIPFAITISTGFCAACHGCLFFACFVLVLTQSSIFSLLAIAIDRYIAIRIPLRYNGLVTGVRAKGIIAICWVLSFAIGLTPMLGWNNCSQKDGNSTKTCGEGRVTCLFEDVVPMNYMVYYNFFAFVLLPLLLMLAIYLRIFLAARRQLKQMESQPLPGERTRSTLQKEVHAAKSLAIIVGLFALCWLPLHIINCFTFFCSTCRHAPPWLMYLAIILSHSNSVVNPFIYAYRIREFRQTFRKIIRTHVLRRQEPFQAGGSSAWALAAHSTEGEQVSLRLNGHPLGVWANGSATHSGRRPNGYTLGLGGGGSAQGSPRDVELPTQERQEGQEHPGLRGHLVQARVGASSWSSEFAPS
Protocol Summary: Radioligand binding assay at rat A2A AR (rat brain striatum) vs. [^3H]MSX-2
Condition Details: rat (r); at 1,000 nM
Measurement Type: % inhibition of radioligand binding at indicated concentration, A2A vs. [^3H]MSX-2

// worked examples, % inhibition of radioligand binding at indicated concentration, A2A vs. [^3H]MSX-2 included
Compound: CCn1c(=O)c2c(nc3n2CCN(Cc2cc(F)c(F)c(F)c2)C3)n(CC)c1=O [Compound 15r]
Measured Value: 36%
--
Compound: Cn1c(=O)[nH]c(=O)c2c1nc1n2CCN(Cc2cccc(C(F)(F)F)c2)C1 [Compound 13b]
Measured Value: 5%
--
Compound: CCn1c(=O)c2c(nc3n2CCN(Cc2cc(C(F)(F)F)cc(C(F)(F)F)c2)C3)n(C)c1=O [Compound 14q]
Measured Value: 39%
--
Compound: CCn1c(=O)c2c(nc3n2CCN(Cc2ccc(F)cc2)C3)n(C)c1=O [Compound 14h]
Measured Value: 7%
--
Compound: CCn1c(=O)c2c(nc3n2CCN(Cc2ccccc2C(F)(F)F)C3)n(C)c1=O [Compound 14d]
Measured Value: 20%

Report % inhibition of radioligand binding at indicated concentration, A2A vs. [^3H]MSX-2 for every entry below.
1. Cn1c(=O)[nH]c(=O)c2c1nc1n2CCN(CCc2ccc(Cl)c(Cl)c2)C1 [Compound 13g]
2. Cn1c(=O)[nH]c(=O)c2c1nc1n2CCN(CCc2cccc(C(F)(F)F)c2)C1 [Compound 13e]
3. Cn1c(=O)[nH]c(=O)c2c1nc1n2CCN(Cc2ccccc2Br)C1 [Compound 13a]

Solution:
["10%", "4%", "-23%"]

Data origin, for the record: paper PMC6028563
